Recorded OD 600 by entry
- experiment-notes: Measurement of turbidity in BSA (absorbance at 600 nm)
- Assay type: physicochemical
- particulars: 1% BSA, peptide 50 μM

Sample records with OD 600:
1) TIHPRSWVHQIALRLRYLRIHPRSWVHQIAS [SEQ ID NO: 23]
< 0.01
2) TRFLRIHPRSWVHQIALRLRFLRIHPRSWVHQIALRS [SEQ ID NO: 5]
< 0.01

Now look at this entry.
For this sequence ( TRYLRIHPRSWVHQIALRLRYLRIHPRSWVHQIALRS [SEQ ID NO: 1] ), measured OD 600 is 0.03
